// values below are reported Ki
# Subject Of Test: Glucocorticoid receptor (Homo sapiens)
# Experimental Protocol: Binding affinity to glucocorticoid receptor (unknown origin) by fluorescence polarization assay
Report the figure in nM without appending any unit label.

Take a look at these entries with their results.
{"Molecule": "CC(C)(C(=O)Nn1ncnn1)C(c1ccccc1)c1ccc2c(cnn2-c2ccc(F)cc2)c1 (racemic)", "Unit Tag": "nM", "Meas Value": 17}
{"Molecule": "CC(C)(C(=O)Nc1nncs1)C(c1ccccc1)c1ccc2c(cnn2-c2ccncc2)c1 (racemic)", "Unit Tag": "nM", "Meas Value": 1.9}
{"Molecule": "CC(C)(C(=O)Nc1nncs1)[C@H](c1ccccc1)c1ccc2c(cnn2-c2ccc(F)cc2)c1", "Unit Tag": "nM", "Meas Value": 6.7}
{"Molecule": "CC(C)(C(=O)Nc1nncs1)[C@@H](c1ccccc1)c1ccc2[nH]ncc2c1", "Unit Tag": "nM", "Meas Value": 2.7}
{"Molecule": "CC(C)(C(=O)Nn1nccn1)C(c1ccccc1)c1ccc2c(cnn2-c2ccc(F)cc2)c1 (racemic)", "Unit Tag": "nM", "Meas Value": 11}
{"Molecule": "CC(C)(C(=O)Nc1nncs1)C(c1ccccc1)c1ccc2c(cnn2-c2ccc(F)cc2)c1 (racemic)", "Unit Tag": "nM", "Meas Value": 18}

Please examine the following record next.
Tell me reported Ki for CC(C)(C(=O)Nc1nccs1)[C@@H](c1ccccc1)c1ccc2c(cnn2-c2ccc(F)cc2)c1 , tested with Glucocorticoid receptor (Homo sapiens).
6

###

A short record of Ki observed with Androgen receptor (Homo sapiens, UniProt P10275) follows.
Sequence (P10275 whole entry): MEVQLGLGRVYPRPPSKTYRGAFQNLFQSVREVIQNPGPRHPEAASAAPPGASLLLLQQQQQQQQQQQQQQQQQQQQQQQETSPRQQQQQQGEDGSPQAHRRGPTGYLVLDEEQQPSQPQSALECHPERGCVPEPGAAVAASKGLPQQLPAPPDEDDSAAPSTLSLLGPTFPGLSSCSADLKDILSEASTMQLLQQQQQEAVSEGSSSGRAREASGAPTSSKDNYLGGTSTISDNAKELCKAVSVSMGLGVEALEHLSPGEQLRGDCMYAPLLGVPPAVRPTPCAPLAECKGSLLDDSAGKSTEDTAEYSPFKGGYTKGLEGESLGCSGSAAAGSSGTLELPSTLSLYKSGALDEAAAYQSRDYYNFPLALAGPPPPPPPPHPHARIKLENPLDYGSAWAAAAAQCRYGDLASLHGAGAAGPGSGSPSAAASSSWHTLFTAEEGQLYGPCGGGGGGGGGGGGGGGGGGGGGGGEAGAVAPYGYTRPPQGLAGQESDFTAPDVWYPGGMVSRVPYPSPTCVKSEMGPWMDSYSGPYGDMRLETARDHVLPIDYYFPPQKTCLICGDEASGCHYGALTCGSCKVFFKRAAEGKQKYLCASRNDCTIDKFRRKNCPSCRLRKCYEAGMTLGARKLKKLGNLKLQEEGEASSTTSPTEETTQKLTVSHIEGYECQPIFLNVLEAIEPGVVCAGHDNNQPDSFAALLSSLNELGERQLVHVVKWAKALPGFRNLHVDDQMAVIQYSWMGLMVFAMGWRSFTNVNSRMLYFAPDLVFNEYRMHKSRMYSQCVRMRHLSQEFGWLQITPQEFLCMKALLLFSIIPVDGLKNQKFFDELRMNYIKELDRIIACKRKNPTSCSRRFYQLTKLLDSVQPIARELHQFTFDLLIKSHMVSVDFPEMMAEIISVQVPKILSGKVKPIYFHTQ
Express the result in µM but write the number alone.

{"Compound": "CC(C(=O)Nc1nncs1)[C@@H](c1ccccc1)c1ccc2c(cnn2-c2ccc(F)cc2)c1 (single isomer, unassigned; diastereomer 2)", "Meas Value": 0.243}

Next compound, please.
Request - read-out Ki | tested on Androgen receptor (Homo sapiens, UniProt P10275) | compound CCCC(c1ccc2c(cnn2-c2ccc(F)cc2)c1)C(C)(C)C(=O)Nc1nncs1 (racemic)
2.51

###

The reader will find reported EC50 values listed item by item below.
# Subject Of Test: Glucocorticoid receptor (Homo sapiens, UniProt P04150)
# Experimental Protocol: Agonist activity at glucocorticoid receptor in human A549 cells assessed as inhibition of PMA-induced AP-1 activation by luciferase reporter gene assay
# Format: cell-based
Report the value in nM with no unit label.

Consider the worked cases shown below.
{"Compound": "CC(C)(C(=O)Nc1nccs1)C(c1ccccc1)c1ccc2c(cnn2-c2ccc(F)cc2)c1 (racemic)", "Measurement Kind": "EC50", "Meas Value": 4.1}
{"Compound": "CC(C)(C(=O)Nc1nncs1)[C@@H](c1ccccc1)c1ccc2[nH]ncc2c1", "Measurement Kind": "EC50", "Meas Value": 24}
{"Compound": "Cc1cnc(NC(=O)C(C)(C)C(c2ccccc2)c2ccc3c(cnn3-c3ccc(F)cc3)c2)s1 (racemic)", "Measurement Kind": "EC50", "Meas Value": 49}
{"Compound": "CC(C)CCn1ncc2cc(C(c3ccccc3)C(C)(C)C(=O)Nc3nncs3)ccc21 (racemic)", "Measurement Kind": "EC50", "Meas Value": 45}
{"Compound": "Cc1nnc(NC(=O)C(C)(C)C(c2ccccc2)c2ccc3c(cnn3-c3ccc(F)cc3)c2)s1 (racemic)", "Measurement Kind": "EC50", "Meas Value": 141}
{"Compound": "CCCC(c1ccc2c(cnn2-c2ccc(F)cc2)c1)C(C)(C)C(=O)Nc1nncs1 (racemic)", "Measurement Kind": "EC50", "Meas Value": 18}

Now look at this one.
// EC50 lookup, key: COc1cccc(-n2ncc3cc(C(c4ccccc4)C(C)(C)C(=O)Nc4nncs4)ccc32)c1 (racemic)
1200

###

# Subject Of Test: Glucocorticoid receptor (Homo sapiens)
# Experimental Protocol: Agonist activity at glucocorticoid receptor in human A549 cells assessed as inhibition of IL-1beta-induced NF-kappaB dependent E-selectin activation by luciferase reporter gene assay relative to dexamethasone
# Assay type: cell-based
Catalogue of Efficacy readings, one per entry.
The reply should contain only the number, in %.

Worked examples, 6 compounds total:
{"Compound": "CC(C)(C(=O)Nc1nccs1)[C@H](c1ccccc1)c1ccc2c(cnn2-c2ccc(F)cc2)c1", "Meas Value": 81}
{"Compound": "CC(C)(C(=O)Nc1nncs1)[C@H](c1ccccc1)c1ccc2c(cnn2-c2cccnc2)c1", "Meas Value": 35}
{"Compound": "CC(C)CCn1ncc2cc(C(c3ccccc3)C(C)(C)C(=O)Nc3nncs3)ccc21 (racemic)", "Meas Value": 87}
{"Compound": "CC(C)(C(=O)Nc1nncs1)C(c1ccccc1)c1ccc2c(cnn2CCO)c1 (racemic)", "Meas Value": 27}
{"Compound": "CC(C)(C(=O)Nc1nncs1)C(c1ccccc1)c1ccc2c(cnn2-c2ccncc2)c1 (racemic)", "Meas Value": 56}
{"Compound": "CC(C)(C(=O)Nc1nncs1)[C@@H](c1ccccc1)c1ccc2c(cnn2-c2ccc(F)cc2)c1", "Meas Value": 86}

# evaluate next
Dear colleague, I am looking for the recorded Efficacy of the following compound: CC(C)(C(=O)Nc1nncs1)C(c1ccccc1)c1ccc2c(cnn2-c2ccc(Cl)cc2)c1 (racemic)
84

###

# Subject Of Test: Glucocorticoid receptor (Homo sapiens, UniProt P04150)
# Sequence (P04150 whole entry): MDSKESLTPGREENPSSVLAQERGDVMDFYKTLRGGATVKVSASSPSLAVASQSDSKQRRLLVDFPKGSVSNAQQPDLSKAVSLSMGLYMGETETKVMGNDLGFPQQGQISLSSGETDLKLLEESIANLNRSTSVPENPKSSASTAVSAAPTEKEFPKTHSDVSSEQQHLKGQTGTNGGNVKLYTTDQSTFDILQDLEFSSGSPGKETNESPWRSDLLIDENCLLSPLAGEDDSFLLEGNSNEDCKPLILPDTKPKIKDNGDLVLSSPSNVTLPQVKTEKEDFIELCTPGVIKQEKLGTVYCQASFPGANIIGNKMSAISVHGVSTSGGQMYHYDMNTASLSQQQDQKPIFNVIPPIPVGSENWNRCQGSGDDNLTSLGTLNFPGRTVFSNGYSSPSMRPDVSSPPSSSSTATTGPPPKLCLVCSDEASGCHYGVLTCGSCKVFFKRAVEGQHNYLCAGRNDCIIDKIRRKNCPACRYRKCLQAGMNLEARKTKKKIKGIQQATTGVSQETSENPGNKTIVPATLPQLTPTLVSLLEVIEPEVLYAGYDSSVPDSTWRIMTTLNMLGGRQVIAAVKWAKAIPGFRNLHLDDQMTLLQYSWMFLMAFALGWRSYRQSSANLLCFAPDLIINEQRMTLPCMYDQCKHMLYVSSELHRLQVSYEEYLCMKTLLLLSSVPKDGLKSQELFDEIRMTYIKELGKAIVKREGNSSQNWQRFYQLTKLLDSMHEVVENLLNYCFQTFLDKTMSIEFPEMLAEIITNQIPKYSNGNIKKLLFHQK
# Experimental Protocol: Agonist activity at glucocorticoid receptor in human A549 cells assessed as inhibition of IL-1beta-induced NF-kappaB dependent E-selectin activation by luciferase reporter gene assay
# Assay type: cell-based
pEC50: −log10 of the molar value.
Classification field: fulfilled = pEC50 at or over 7; not fulfilled = pEC50 under 7.

Worked examples follow.
{"Compound": "CC(C)(C(=O)Nc1nncs1)[C@@H](c1ccccc1)c1ccc2c(cnn2-c2ccc(F)cc2)c1", "Group Label": "fulfilled"}
{"Compound": "CC(C)(C(=O)Nc1nncs1)[C@@H](c1ccccc1)c1ccc2c(cnn2-c2cccnc2)c1", "Group Label": "fulfilled"}
{"Compound": "CC(C)(C(=O)Nc1nncs1)[C@H](c1ccccc1)c1ccc2c(cnn2-c2cccnc2)c1", "Group Label": "not fulfilled"}
{"Compound": "CC(C)(C(=O)Nc1nccs1)[C@H](c1ccccc1)c1ccc2c(cnn2-c2ccc(F)cc2)c1", "Group Label": "fulfilled"}
{"Compound": "CC(C)(C(=O)Nc1nncs1)C(c1ccccc1)c1ccc2c(cnn2-c2ccc(Cl)cc2)c1 (racemic)", "Group Label": "fulfilled"}

For this compound, is measured pEC50 7 or higher? CC(C)CCn1ncc2cc(C(c3ccccc3)C(C)(C)C(=O)Nc3nncs3)ccc21 (racemic)
fulfilled

// next record CC(C)(C(=O)Nc1nncs1)[C@H](c1ccccc1)c1ccc2[nH]ncc2c1
not fulfilled

One more compound: CC(C)(C(=O)Nc1nncs1)[C@@H](c1ccccc1)c1ccc2[nH]ncc2c1
fulfilled

// same read-out, input: CC(C)(C(=O)Nc1nncs1)C(c1ccccc1)c1ccc2c(cnn2-c2ccc(O)cc2)c1 (racemic)
not fulfilled

###

# Subject Of Test: Mineralocorticoid receptor (Homo sapiens)
# Sequence (P08235 whole entry): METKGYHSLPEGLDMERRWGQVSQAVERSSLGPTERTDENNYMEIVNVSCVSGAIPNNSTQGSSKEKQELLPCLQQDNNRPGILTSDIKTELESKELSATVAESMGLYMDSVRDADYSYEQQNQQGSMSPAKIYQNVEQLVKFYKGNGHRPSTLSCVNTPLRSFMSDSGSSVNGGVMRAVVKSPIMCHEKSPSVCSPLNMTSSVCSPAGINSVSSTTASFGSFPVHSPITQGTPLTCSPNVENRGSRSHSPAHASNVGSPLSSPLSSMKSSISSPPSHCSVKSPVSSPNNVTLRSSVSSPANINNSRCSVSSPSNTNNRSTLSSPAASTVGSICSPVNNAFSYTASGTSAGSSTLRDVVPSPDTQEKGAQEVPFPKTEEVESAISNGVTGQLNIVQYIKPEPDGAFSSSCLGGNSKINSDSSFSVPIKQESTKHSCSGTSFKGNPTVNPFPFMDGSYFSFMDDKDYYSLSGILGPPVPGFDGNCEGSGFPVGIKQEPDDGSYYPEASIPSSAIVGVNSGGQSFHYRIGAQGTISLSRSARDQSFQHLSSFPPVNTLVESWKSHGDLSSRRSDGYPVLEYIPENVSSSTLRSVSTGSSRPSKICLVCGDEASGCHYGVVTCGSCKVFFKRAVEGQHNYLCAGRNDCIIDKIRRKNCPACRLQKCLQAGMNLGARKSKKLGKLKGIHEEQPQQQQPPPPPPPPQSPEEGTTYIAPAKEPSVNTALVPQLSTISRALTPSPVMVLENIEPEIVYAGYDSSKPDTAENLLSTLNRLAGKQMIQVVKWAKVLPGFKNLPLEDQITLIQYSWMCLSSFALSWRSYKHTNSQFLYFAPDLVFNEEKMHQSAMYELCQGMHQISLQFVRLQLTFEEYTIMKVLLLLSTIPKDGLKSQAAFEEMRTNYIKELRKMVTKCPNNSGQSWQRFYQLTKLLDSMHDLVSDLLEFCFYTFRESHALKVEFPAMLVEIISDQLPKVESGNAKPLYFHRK
# Experimental Protocol: Agonist activity at mineralocorticoid receptor in human A549 cells
pEC50: −log10 of the molar value.
Measurement Kind: pEC50

What value of measured pEC50 is listed for CC(C)(C(=O)Nc1nncs1)[C@@H](c1ccccc1)c1ccc2c(cnn2-c2ccc(F)cc2)c1 ?
< 5.30

Quick one: CC(C)(C(=O)Nc1nncs1)[C@H](c1ccccc1)c1ccc2c(cnn2-c2ccc(F)cc2)c1
< 5.30
